biological target: S. aureus GyrB ATPase (Staphylococcus aureus, UniProt P0A0K8); assay: S. aureus GyrB ATPase inhibition (ammonium molybdate/malachite green phosphate detection); type: biochemical; conditions: 1 μM compound; S. aureus GyrB ATPase; read-out: Percent Inhibition (1 μM)
Sequence (P0AES4 whole entry): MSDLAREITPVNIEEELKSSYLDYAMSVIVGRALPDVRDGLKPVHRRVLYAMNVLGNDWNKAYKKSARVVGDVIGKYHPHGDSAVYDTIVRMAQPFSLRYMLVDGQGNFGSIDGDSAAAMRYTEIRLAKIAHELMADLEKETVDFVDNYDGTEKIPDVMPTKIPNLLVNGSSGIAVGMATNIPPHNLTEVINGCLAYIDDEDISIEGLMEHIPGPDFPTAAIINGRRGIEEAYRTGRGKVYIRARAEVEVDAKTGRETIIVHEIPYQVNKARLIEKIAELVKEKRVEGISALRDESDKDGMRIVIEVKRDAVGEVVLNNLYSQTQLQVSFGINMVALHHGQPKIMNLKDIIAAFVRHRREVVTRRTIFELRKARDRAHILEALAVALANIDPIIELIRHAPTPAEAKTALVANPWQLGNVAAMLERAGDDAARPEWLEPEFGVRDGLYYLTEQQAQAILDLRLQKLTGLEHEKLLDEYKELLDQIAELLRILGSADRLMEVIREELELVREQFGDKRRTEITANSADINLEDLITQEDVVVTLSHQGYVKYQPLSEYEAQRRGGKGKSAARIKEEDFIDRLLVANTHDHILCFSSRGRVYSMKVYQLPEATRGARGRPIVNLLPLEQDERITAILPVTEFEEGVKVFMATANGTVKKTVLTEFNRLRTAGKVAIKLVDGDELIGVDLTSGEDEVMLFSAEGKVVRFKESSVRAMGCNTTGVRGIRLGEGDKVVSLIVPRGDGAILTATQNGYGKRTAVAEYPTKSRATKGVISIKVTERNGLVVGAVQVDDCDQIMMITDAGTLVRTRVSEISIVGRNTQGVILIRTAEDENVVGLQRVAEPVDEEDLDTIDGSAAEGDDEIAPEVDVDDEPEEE
Sequence (P0A0K8 whole entry): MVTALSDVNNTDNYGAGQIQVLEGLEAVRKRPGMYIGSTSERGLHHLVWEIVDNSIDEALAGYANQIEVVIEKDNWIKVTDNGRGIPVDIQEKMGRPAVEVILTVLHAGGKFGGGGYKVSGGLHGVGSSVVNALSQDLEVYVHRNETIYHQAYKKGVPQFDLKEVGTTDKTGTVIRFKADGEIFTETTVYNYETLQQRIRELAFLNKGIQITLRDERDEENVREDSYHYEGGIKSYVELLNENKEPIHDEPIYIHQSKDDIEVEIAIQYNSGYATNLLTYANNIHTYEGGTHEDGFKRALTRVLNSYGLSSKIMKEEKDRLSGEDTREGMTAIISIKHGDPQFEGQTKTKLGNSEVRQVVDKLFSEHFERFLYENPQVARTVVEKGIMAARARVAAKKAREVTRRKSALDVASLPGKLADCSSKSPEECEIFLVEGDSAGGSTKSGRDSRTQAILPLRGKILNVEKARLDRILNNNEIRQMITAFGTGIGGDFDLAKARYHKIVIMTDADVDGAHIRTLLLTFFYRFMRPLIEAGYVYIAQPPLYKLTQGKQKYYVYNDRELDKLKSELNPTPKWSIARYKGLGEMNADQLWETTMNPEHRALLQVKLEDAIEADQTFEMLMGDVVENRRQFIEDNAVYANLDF
assay_endpoint: inhibition at 1 µM (%)
A number alone suffices; assume %.

>  <item_smiles>
CCNC(=O)Nc1cc(-c2nc(C(F)(F)F)cs2)c(-c2cc3c(=O)c(C(=O)O)cn([C@H](CO)CC(C)C)c3cn2)cn1

>  <inhibition at 1 µM, %>
107

$$$$

Item CCNC(=O)Nc1cc(-c2nc(C(F)(F)F)cs2)c(-c2cnc3c(c2)c(=O)c(C(=O)O)cn3CCOP(=O)(O)O)cn1 with S. aureus GyrB ATPase (Staphylococcus aureus, UniProt P0A0K8) - inhibition at 1 µM?
103

// fetch S. aureus GyrB ATPase (Staphylococcus aureus, UniProt P0A0K8) inhibition at 1 µM for CCNC(=O)Nc1cc(-c2nc(-c3ccccc3)cs2)c(-c2cc3c(=O)c(C(=O)O)cn([C@H]4CCCN(CCN5CCOCC5)C4)c3cn2)cn1
105

Hi! What's the reported inhibition at 1 µM for CCNC(=O)Nc1cc(-c2nc(-c3ccccc3)cs2)c(-c2cc3c(=O)c(C(=O)O)cn([C@@H]4CCCN(CCN5CCOCC5)C4)c3cn2)cn1 on S. aureus GyrB ATPase (Staphylococcus aureus, UniProt P0A0K8)?
100

For the record CCCN1CC[C@H](Cn2cc(C(=O)O)c(=O)c3cc(-c4cnc(NC(=O)NCC)cc4-c4nc(C(F)(F)F)cs4)ncc32)C1 , what value of inhibition at 1 µM is listed for S. aureus GyrB ATPase (Staphylococcus aureus, UniProt P0A0K8)?
108

Request - read-out inhibition at 1 µM | tested on S. aureus GyrB ATPase (Staphylococcus aureus, UniProt P0A0K8) | compound CCNC(=O)Nc1cc(-c2nc(C(F)(F)F)cs2)c(-c2cc3c(=O)c(C(=O)O)cn(C[C@@H]4CCCN4CC)c3cn2)cn1
103

// lookup inhibition at 1 µM | system=S. aureus GyrB ATPase (Staphylococcus aureus, UniProt P0A0K8) | key= CCNC(=O)Nc1cc(-c2nc(C(F)(F)F)cs2)c(-c2cc3c(=O)c(C(=O)O)cn(C(C)(C)C)c3cn2)cn1
106

Request - read-out inhibition at 1 µM | tested on S. aureus GyrB ATPase (Staphylococcus aureus, UniProt P0A0K8) | compound CCNC(=O)Nc1cc(-c2nc(C(F)(F)F)cs2)c(-c2cc3c(=O)c(C(=O)O)cn([C@@H]4CCCN(CCN(CC)CC)C4)c3cn2)cn1
103

Form entry - test system: S. aureus GyrB ATPase (Staphylococcus aureus, UniProt P0A0K8); read-out: inhibition at 1 µM; compound: CCNC(=O)Nc1cc(-c2nc(C(F)(F)F)cs2)c(-c2cnc3c(c2)c(=O)c(C(=O)O)cn3[C@@H]2CCCN(CCN(CC)CC)C2)cn1
106

Record lookup: for S. aureus GyrB ATPase (Staphylococcus aureus, UniProt P0A0K8), what inhibition at 1 µM belongs to CCNC(=O)Nc1cc(-c2nc(C(F)(F)F)cs2)c(-c2cnc3c(c2)c(=O)c(C(=O)O)cn3CC)cn1 ?
98

Form: Entry = CCNC(=O)Nc1cc(-c2nc(C(F)(F)F)cs2)c(-c2cc3c(=O)c(C(=O)O)cn(CCOC)c3cn2)cn1 | System = S. aureus GyrB ATPase (Staphylococcus aureus, UniProt P0A0K8) | inhibition at 1 µM = ____
106

Value wanted: inhibition at 1 µM (S. aureus GyrB ATPase (Staphylococcus aureus, UniProt P0A0K8)) of entry CCNC(=O)Nc1cc(-c2nc(CC(C)C)cs2)c(-c2cnc3c(c2)c(=O)c(C(=O)O)cn3[C@H]2CCCN(CCN(CC)CC)C2)cn1
103

inhibition at 1 µM of CCNC(=O)Nc1cc(-c2nc(-c3ccccc3)cs2)c(-c2cnc3c(c2)c(=O)c(C(=O)O)cn3[C@H]2CCCN(CCN(CC)CC)C2)cn1 on S. aureus GyrB ATPase (Staphylococcus aureus, UniProt P0A0K8)?
102

Enter reported inhibition at 1 µM observed with S. aureus GyrB ATPase (Staphylococcus aureus, UniProt P0A0K8) for CCNC(=O)Nc1cc(-c2nc(C(F)(F)F)cs2)c(-c2cc3c(=O)c(C(=O)O)cn(Cc4cnn(C)c4)c3cn2)cn1
102

# returns recorded inhibition at 1 µM (system: S. aureus GyrB ATPase (Staphylococcus aureus, UniProt P0A0K8)) for CCNC(=O)Nc1cc(-c2nc(C(F)(F)F)cs2)c(-c2cnc3c(c2)c(=O)c(C(=O)O)cn3[C@H](COP(=O)(O)O)CC(C)C)cn1
108
